molecular target: D(3) dopamine receptor (Homo sapiens, UniProt P35462); test: Inhibition of human D3 receptor expressed in CHO cells at 10 uM by scintillation counting method relative to control; assay type: cell-based
Sequence (P35462 whole entry): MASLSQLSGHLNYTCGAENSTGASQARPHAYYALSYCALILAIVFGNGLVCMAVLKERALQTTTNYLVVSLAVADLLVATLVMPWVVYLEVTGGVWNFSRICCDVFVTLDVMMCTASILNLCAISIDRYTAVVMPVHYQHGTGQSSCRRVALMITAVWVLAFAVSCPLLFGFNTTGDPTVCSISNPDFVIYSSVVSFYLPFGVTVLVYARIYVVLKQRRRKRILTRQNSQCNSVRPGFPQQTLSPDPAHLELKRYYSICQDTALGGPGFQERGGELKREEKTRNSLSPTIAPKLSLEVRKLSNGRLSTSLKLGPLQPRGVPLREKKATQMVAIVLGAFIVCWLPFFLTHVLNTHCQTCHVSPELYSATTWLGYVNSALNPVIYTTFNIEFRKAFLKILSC
value_type: inhibition (%)

• O=C(OCCN1CCN(c2ccccc2)CC1)c1cccc2ccccc12 = 52.8
• CN1CCN(CCOC(=O)c2cccc3ccccc23)CC1 = 49.7
• CN1CCN(CCOc2cccc3ccccc23)CC1 = 33.5
• CN1CCN(CCCOC(=O)c2cccc3ccccc23)CC1 = 71.5
• CN1CCN(CCCOc2cccc3ccccc23)CC1 = 47.8
• CN1CCN(CCCOC(=O)c2cc3ccccc3o2)CC1 = 9
• O=C(OCCCN1CCN(c2ccccc2)CC1)c1ccc2ccccc2c1 = 65.3
• c1ccc(N2CCN(CCOc3cccc4ccccc34)CC2)cc1 = 34.5
• O=C(OCCN1CCN(c2ccccc2)CC1)c1ccc2ccccc2c1 = 32.8
• CN1CCN(CCCOc2ccc3ccccc3c2)CC1 = 22.8
• CN1CCN(CCOc2ccc3ccccc3c2)CC1 = 15.2
• CN1CCN(CCCOC(=O)c2ccc3ccccc3c2)CC1 = 77.7
• CN1CCN(CCOC(=O)c2ccc3ccccc3c2)CC1 = 53.7

----------
target: D(3) dopamine receptor (Homo sapiens); assay: Inhibition of human D3 receptor expressed in CHO cells assessed as inhibition constant by scintillation counting method; format: cell-based
pKi: −log10 of the molar value.
value_type: pKi

- O=C(NCCCCN1CCN(c2ccccc2)CC1)c1ccc2ccccc2c1: 9.04

----------
Each item that follows carries a reported inhibition.
biological target: Histamine H3 receptor (Homo sapiens, UniProt Q9Y5N1); assay: Inhibition of human H3 receptor at 1 uM incubated for 90 mins by scintillation counting method relative to control
Sequence (Q9Y5N1 whole entry): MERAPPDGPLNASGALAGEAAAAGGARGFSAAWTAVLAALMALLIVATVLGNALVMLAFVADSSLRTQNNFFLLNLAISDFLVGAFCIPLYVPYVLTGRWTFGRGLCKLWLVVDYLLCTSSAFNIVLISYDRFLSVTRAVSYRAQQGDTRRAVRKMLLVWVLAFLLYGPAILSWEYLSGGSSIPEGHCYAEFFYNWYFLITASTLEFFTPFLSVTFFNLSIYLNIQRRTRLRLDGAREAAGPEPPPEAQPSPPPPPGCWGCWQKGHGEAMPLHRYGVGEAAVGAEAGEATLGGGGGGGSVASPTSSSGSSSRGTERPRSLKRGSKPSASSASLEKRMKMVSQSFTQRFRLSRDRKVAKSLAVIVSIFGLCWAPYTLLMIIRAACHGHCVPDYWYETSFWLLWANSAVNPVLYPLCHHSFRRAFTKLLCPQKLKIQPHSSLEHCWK
value_type: inhibition (%)

• c1ccc(N2CCN(CCCOc3ccc4ccccc4c3)CC2)cc1 = 36.8
• O=C(NCCCN1CCN(c2ccncc2)CC1)c1cc2ccccc2o1 = 80.5
• c1ccc(N2CCN(CCOc3ccc4ccccc4c3)CC2)cc1 = 23.3
• O=C(OCCCN1CCN(c2ccncc2)CC1)c1cc2ccccc2o1 = 88.8
• c1ccc2c(OCCN3CCN(c4ccncc4)CC3)cccc2c1 = 54

----------
biological target: Histamine H3 receptor (Homo sapiens, UniProt Q9Y5N1); test: Binding affinity to human H3 receptor assessed as inhibition constant incubated for 90 mins by scintillation counting method
Please note: Ki exactly at 3 µM is 0.0. Only values below 3 µM get 1.0.

- CN1CCN(CCCOc2ccc3ccccc3c2)CC1: 1.0
- O=C(OCCCN1CCN(c2ccncc2)CC1)c1cc2ccccc2o1: 1.0
- CN1CCN(CCOC(=O)c2ccc3ccccc3c2)CC1: 1.0
- CN1CCN(CCCOC(=O)c2cccc3ccccc23)CC1: 0.0
- c1ccc(N2CCN(CCCOc3ccc4ccccc4c3)CC2)cc1: 0.0
- CN1CCN(CCCOC(=O)c2cc3ccccc3o2)CC1: 0.0
- CN1CCN(CCCOC(=O)c2ccc3ccccc3c2)CC1: 1.0
- O=C(NCCCN1CCN(c2ccncc2)CC1)c1cc2ccccc2o1: 1.0

----------
Each item that follows carries a reported inhibition.
target: UniProt P35462; assay: Inhibition of human D3 receptor expressed in CHO cells at 1 uM by scintillation counting method relative to control; type: cell-based
value_type: inhibition (%)

* c1ccc(N2CCN(CCCOc3ccc4ccccc4c3)CC2)cc1 | 80.5
* c1ccc2c(OCCN3CCN(c4ccncc4)CC3)cccc2c1 | 37.7
* O=C(OCCCN1CCN(c2ccncc2)CC1)c1cc2ccccc2o1 | 18
* c1ccc(N2CCN(CCOc3ccc4ccccc4c3)CC2)cc1 | 45
* O=C(NCCCN1CCN(c2ccncc2)CC1)c1cc2ccccc2o1 | 23.5
